# reported Ki; entries follow
biological target: CRBN/DDB1 protein complex (Homo sapiens, UniProt Q96SW2); test: CRBN displacement TR-FRET assay; settings: Thalidomide-Red tracer, 6×His-CRBN/DDB1; read-out: CRBN binding Ki
Sequence (Q96SW2 whole entry, species assumed): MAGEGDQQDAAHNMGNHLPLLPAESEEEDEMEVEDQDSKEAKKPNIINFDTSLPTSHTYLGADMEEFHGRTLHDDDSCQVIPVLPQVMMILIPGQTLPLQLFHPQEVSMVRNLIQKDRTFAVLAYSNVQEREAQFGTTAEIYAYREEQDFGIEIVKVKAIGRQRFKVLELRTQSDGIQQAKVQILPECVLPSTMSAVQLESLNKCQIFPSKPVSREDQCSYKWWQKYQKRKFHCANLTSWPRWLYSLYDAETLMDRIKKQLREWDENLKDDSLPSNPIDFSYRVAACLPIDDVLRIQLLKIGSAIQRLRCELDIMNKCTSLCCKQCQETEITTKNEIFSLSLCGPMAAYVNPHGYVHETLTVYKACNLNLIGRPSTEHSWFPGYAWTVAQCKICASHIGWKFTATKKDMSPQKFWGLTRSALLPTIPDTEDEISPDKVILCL
Sequence (Q16531 whole entry partner, species assumed): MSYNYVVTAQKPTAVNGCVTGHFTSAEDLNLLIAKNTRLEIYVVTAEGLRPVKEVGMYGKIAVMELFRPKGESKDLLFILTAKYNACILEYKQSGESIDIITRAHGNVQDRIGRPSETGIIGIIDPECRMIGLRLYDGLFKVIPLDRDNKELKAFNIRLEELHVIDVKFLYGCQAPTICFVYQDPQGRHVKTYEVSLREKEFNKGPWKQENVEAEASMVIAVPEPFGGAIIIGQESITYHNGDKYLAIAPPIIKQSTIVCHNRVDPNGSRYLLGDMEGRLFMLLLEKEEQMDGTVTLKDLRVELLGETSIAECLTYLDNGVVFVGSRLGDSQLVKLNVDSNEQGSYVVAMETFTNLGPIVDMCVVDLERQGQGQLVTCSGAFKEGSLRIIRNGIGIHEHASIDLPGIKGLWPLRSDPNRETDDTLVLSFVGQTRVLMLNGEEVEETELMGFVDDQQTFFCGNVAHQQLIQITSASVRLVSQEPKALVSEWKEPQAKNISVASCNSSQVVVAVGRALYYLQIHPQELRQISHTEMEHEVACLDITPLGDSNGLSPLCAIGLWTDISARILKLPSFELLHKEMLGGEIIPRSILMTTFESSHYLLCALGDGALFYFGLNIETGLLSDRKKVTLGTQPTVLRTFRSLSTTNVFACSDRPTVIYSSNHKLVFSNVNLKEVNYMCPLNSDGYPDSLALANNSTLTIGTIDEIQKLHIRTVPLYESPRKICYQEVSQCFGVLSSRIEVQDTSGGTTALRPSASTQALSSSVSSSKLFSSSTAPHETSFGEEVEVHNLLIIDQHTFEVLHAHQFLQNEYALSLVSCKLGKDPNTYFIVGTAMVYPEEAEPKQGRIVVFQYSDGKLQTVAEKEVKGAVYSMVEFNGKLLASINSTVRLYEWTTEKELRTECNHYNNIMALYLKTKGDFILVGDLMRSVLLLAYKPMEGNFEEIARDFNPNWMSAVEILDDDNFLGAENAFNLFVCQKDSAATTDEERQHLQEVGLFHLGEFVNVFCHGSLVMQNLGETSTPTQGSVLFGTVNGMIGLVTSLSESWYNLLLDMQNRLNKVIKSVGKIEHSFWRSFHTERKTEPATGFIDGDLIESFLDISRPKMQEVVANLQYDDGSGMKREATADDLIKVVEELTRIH

Look over these answered cases.
- COMPOUND: "[2H]C([2H])(OC(=O)Nc1cc(C(C)(C)C)no1)c1ccc2cc(C3CCC(=O)NC3=O)c(C)nc2c1 (stereo not shown) [Compound 82]"
  Ki: "< 500 nM"
- COMPOUND: "Cc1nc2cc(COC(=O)Nc3ccc(C(C)(C)C)c(Cl)c3)ccc2cc1C1CCC(=O)NC1=O (stereo not shown) [Compound 10]"
  Ki: "< 500 nM"
- COMPOUND: "Cc1nc2cc(COC(=O)Nc3cccc(-c4ccccc4)c3)ccc2cc1C1CCC(=O)NC1=O (stereo not shown) [Compound 46]"
  Ki: "500 to 1000 nM"
- COMPOUND: "Cc1nc2cc(COC(=O)Nc3cc(C(C)(C)C)n[nH]3)ccc2cc1C1CCC(=O)NC1=O (stereo not shown) [Compound 75]"
  Ki: "> 1000 nM"
- COMPOUND: "Cc1ccc(NC(=O)OCc2ccc3cc(C4(F)CCC(=O)NC4=O)c(C)nc3c2)cc1Cl (stereo not shown) [Compound 74]"
  Ki: "> 1000 nM"
- COMPOUND: "Cc1ccc(NC(=O)OCc2cc3nc(C)c(C4CCC(=O)NC4=O)cc3cc2F)cc1Cl (stereo not shown) [Compound 49]"
  Ki: "> 1000 nM"
- COMPOUND: "Cc1nc2cc(COC(=O)NC3CCN(c4ccccc4)CC3)ccc2cc1C1CCC(=O)NC1=O (stereo not shown) [Compound 47]"
  Ki: "< 500 nM"
- COMPOUND: "Cc1ccc(NC(=S)NCc2ccc3cc(C4CCC(=O)NC4=O)c(C)nc3c2)cc1Cl (stereo not shown) [Compound 2]"
  Ki: "500 to 1000 nM"

Lab note: next compound to report on.
Dear colleague, I am looking for the recorded Ki of the following compound: Cc1nc2ccc(CNC(=O)Nc3cc(C(C)(C)C)no3)cc2cc1N1CCC(=O)NC1=O [Compound 67]
< 500 nM
